STUDY SYSTEM: GDP-bound KRAS wild-type protein (Homo sapiens)
Sequence (P01116 whole entry): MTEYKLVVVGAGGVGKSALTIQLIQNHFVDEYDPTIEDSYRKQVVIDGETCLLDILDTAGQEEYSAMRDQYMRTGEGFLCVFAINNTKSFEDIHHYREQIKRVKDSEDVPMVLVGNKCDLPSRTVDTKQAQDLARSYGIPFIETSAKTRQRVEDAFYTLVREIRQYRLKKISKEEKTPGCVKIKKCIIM
PROTOCOL DETAILS: Binding to KRAS by surface plasmon resonance (SPR), Single Cycle Kinetics
STATED CONDITIONS: SPR Single Cycle Kinetics, GDP-bound KRAS wild-type protein, 1:1 binding model; read-out: KRAS KD
*1 amine or outer side, *2 acyl side, *3 side chain or, on linkers, in order; H or OH if unused. Where a SMILES comes first, the peptide text is derived from it. Bridges are numbered along the chain shown (N, C = ends). [ ]: non-standard residue; d: D form. The star is where a group is joined. hPhe(3-Cl-4-CF3) = N[C@@H](CCc1ccc(C(F)(F)F)c(Cl)c1)C(=O)O; X38 = C#CCN([C@@H](Cc1ccc(C(F)(F)F)cc1)C(=O)[*:2])[*:1]; NPrPhe(4-CF3) = CCCN[C@@H](Cc1ccc(C(F)(F)F)cc1)C(=O)O; Morpholine(3S-CO) = O=C(O)[C@@H]1COCCN1; NMeGly(cPent) = CN[C@H](C(=O)O)C1CCCC1; Hyp = O=C(O)[C@@H]1C[C@@H](O)CN1; NMeD = CN[C@@H](CC(=O)O)C(=O)O; NMeL = CN[C@@H](CC(C)C)C(=O)O; Morpholide = C1CN(*)CCO1; NMeA = CN[C@@H](C)C(=O)O; Ac5c = NC1(C(=O)O)CCCC1; Aze = O=C(O)[C@@H]1CCN1; Ac4c = NC1(C(=O)O)CCC1; Aib = CC(C)(N)C(=O)O; NEtG = CCNCC(=O)O; Sar = CNCC(=O)O
I'd appreciate it if you marked entries Fulfilled when Kd is lower than 0.9 nM and Not fulfilled when it is not.

input: Please check: Kd for CCCN1C(=O)[C@@H]2CCN2C(=O)CN(C)C(=O)[C@H]([C@@H](C)CC)NC(=O)[C@H](CC(C)C)N(C)C(=O)C[C@@H](C(=O)N(C)C)N(C)C(=O)[C@H](C2CCCC2)N(C)C(=O)C2(CCCC2)NC(=O)[C@@H]2C[C@@H](OCC)CN2C(=O)[C@H](CCc2ccc(C(F)(F)F)c(Cl)c2)NC(=O)CN(C)C(=O)[C@@H]1Cc1ccc(C(F)(F)F)cc1 [PP0444] ([NMeL]I[Sar][Aze][NPrPhe(4-CF3)][Sar][hPhe(3-Cl-4-CF3)][Hyp](Et)[Ac5c][NMeGly(cPent)][NMeD]-NMe2; lactam N-11) , strictly under 0.9 nM or not?
output: Fulfilled

input: Entry to check: CCCN1C(=O)CN(C)C(=O)CNC(=O)[C@H]([C@@H](C)CC)NC(=O)[C@H](CC(C)C)N(C)C(=O)C[C@@H](C(=O)N(C)C)N(C)C(=O)[C@H](C2CCCC2)N(C)C(=O)C2(CCC2)NC(=O)[C@@H]2C[C@@H](OCC)CN2C(=O)[C@H](CCc2ccc(C(F)(F)F)c(Cl)c2)NC(=O)CN(C)C(=O)[C@@H]1Cc1ccc(C(F)(F)F)cc1 [PP0422] ([NMeL]IG[Sar][NPrPhe(4-CF3)][Sar][hPhe(3-Cl-4-CF3)][Hyp](Et)[Ac4c][NMeGly(cPent)][NMeD]-NMe2; lactam N-11)
output: Fulfilled

input: Entry to check: CCC[C@H]1C(=O)N[C@@H](CC(C)C)C(=O)N2C[C@@H](OC)C[C@H]2C(=O)N(C)[C@H]2C/C=C\CCN(C2=O)[C@@H](Cc2ccc(C)cc2)C(=O)N(C)CC(=O)N[C@@H](CCc2ccc(C(F)(F)F)c(OC)c2)C(=O)N2C[C@H](OCC)C[C@H]2C(=O)NC2(CC(C)(C)C2)C(=O)N(C)[C@@H](C2CCCC2)C(=O)N(C)[C@H](C(=O)N(C)C)CC(=O)N1C
output: Not fulfilled

input: Entry to check: CCO[C@@H]1C[C@H]2C(=O)NC3(CC(C)(C)C3)C(=O)N(C)[C@@H](C3CCCC3)C(=O)N(C)[C@H](C(=O)N(C)C)CC(=O)N(C)[C@@H](COC)C(=O)N[C@@H]([C@@H](C)CC)C(=O)N(C3CC3)CC(=O)N(C)[C@H]3C/C=C\CCN(C3=O)[C@@H](CC3CCCCC3)C(=O)N(C)CC(=O)N[C@@H](CCc3ccc(Cl)c(Cl)c3)C(=O)N2C1
output: Not fulfilled

input: Entry to check: CCCN1C(=O)CN(C)C(=O)CN(CC)C(=O)[C@H]([C@@H](C)CC)NC(=O)[C@H](CC(C)C)N(C)C(=O)C[C@@H](C(=O)N2CCOCC2)N(C)C(=O)[C@H](C2CCCC2)N(C)C(=O)C2(CCCC2)NC(=O)[C@@H]2COCCN2C(=O)[C@H](CCc2ccc(C(F)(F)F)c(Cl)c2)NC(=O)CN(C)C(=O)[C@@H]1Cc1ccc(C(F)(F)F)cc1 [PP0299] ([NMeL]I[NEtG][Sar][NPrPhe(4-CF3)][Sar][hPhe(3-Cl-4-CF3)][Morpholine(3S-CO)][Ac5c][NMeGly(cPent)][NMeD]-Morpholide; lactam N-11)
output: Not fulfilled

input: Entry to check: CC[C@H](C)[C@@H]1NC(=O)[C@H](CC(C)C)N(C)C(=O)C[C@@H](C(=O)N(C)C)N(C)C(=O)[C@H](C2CCCC2)N(C)C(=O)C2(CCCC2)NC(=O)[C@@H]2CCCN2C(=O)[C@H](CCc2cc(F)c(C(F)(F)F)c(F)c2)NC(=O)CN(C)C(=O)[C@H](Cc2ccc(C(F)(F)F)cc2)N2CCCCC[C@@H](C2=O)N(C)C(=O)CN(C)C1=O
output: Not fulfilled

input: Entry to check: C#CCN1C(=O)CN(C)C(=O)CN(C)C(=O)[C@H]([C@@H](C)CC)NC(=O)[C@H](CC(C)C)N(C)C(=O)C[C@@H](C(=O)N2CCOCC2)N(C)C(=O)[C@H](C2CCCC2)N(C)C(=O)C2(CCCC2)NC(=O)[C@@H]2CCCN2C(=O)[C@H](CCc2ccc(C(F)(F)F)c(Cl)c2)NC(=O)CN(C)C(=O)[C@@H]1Cc1ccc(C(F)(F)F)cc1 [PP0130] ([NMeL]I[Sar][Sar][X38][Sar][hPhe(3-Cl-4-CF3)]P[Ac5c][NMeGly(cPent)][NMeD]-Morpholide; lactam N-11)
output: Fulfilled

input: Entry to check: CC[C@H](C)[C@@H]1NC(=O)[C@H](C)N(C)C(=O)C[C@@H](C(=O)N(C)C)N(C)C(=O)[C@H](C2CCCC2)N(C)C(=O)C2(CCC2)NC(=O)[C@@H]2CCCN2C(=O)[C@H](CCc2cc(F)c(C(F)(F)F)c(F)c2)NC(=O)CN(C)C(=O)[C@H](Cc2ccc(C(F)(F)F)cc2)N2CCCCC[C@@H](C2=O)N(C)C(=O)CN(C)C1=O
output: Fulfilled

input: Entry to check: CCCN1C(=O)[C@@H]2CCN2C(=O)[C@H](C)N(C)C(=O)[C@H]([C@@H](C)CC)NC(=O)[C@H](CC(C)C)N(C)C(=O)C[C@@H](C(=O)N2CCOCC2)N(C)C(=O)[C@H](C2CCCC2)N(C)C(=O)C(C)(C)NC(=O)[C@@H]2CCCN2C(=O)[C@H](CCc2ccc(C(F)(F)F)c(Cl)c2)NC(=O)CN(C)C(=O)[C@@H]1Cc1ccc(C(F)(F)F)cc1 [PP0225] ([NMeL]I[NMeA][Aze][NPrPhe(4-CF3)][Sar][hPhe(3-Cl-4-CF3)]P[Aib][NMeGly(cPent)][NMeD]-Morpholide; lactam N-11)
output: Fulfilled
